# test: Solubility
# Type: physicochemical
# test settings: pH 7, pH 7; cell of crystalline hydrochloride salt; read-out: Solubility-pH7
Counter-ions that a name gives are not always drawn.
quantity: solubility

Provide solubility value for the following compound: CO/N=C(\C(=O)N[C@@H]1C(=O)N2C(C(=O)O)=C(CSC(=O)c3ccco3)CS[C@H]12)c1csc(N)n1 [crystalline ceftiofur hydrochloride, reference compound]
~100 mg/mL
